Target: RPS6KB1 (Homo sapiens)
Construct: purchased Research Biology Corp. (http://www.reactionbiology.com)
Sequence (P23443 whole entry): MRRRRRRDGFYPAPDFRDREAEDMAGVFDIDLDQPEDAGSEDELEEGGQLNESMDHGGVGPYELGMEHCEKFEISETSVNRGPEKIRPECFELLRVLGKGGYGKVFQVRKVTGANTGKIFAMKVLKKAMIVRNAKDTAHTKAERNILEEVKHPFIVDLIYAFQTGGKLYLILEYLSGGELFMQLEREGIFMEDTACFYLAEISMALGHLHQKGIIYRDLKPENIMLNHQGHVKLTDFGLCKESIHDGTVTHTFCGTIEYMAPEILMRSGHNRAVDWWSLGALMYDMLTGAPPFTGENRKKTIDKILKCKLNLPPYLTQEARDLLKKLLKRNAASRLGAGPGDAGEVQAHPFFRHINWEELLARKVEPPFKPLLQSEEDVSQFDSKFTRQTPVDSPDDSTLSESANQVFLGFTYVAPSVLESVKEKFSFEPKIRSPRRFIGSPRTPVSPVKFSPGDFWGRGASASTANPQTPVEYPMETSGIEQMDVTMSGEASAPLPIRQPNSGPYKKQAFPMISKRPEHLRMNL
Assay: Kinase Profiler, residual kinase activity
Format: biochemical
Conditions: RPS6KB1; inhibitor at 500 nM; read-out: percentage of the remaining kinase activity
Quick reference: remaining activity at 0.5 µM of the listed items.
Numeric answer only, unit % assumed.

Consider the worked cases shown below.
molecule	uom	obsValue
COC1C(N(C)Cc2ccc(-c3ccccc3)cc2)CC2OC1(C)n1c3ccccc3c3c4c(c5c6ccccc6n2c5c31)C(=O)NC4 (stereo not shown)	%	11.1
COC1C(N(C)C(=O)C(N)CCC(=O)OC(C)(C)C)CC2OC1(C)n1c3ccccc3c3c4c(c5c6ccccc6n2c5c31)C(=O)NC4 (stereo not shown)	%	15
COC1C(N(C)C(=O)C(N)CCC(=O)O)CC2OC1(C)n1c3ccccc3c3c4c(c5c6ccccc6n2c5c31)C(=O)NC4 (stereo not shown)	%	9.2

Note: attention shifts to another entry.
Query string: For the record COC1C(N(C)C(=O)C(N)Cc2c[nH]cn2)CC2OC1(C)n1c3ccccc3c3c4c(c5c6ccccc6n2c5c31)C(=O)NC4 (stereo not shown) , what value of remaining activity at 0.5 µM is listed for RPS6KB1 (Homo sapiens)?
Result string: 7.9

* * *

Quick reference: remaining activity at 0.5 µM of the listed items.
Target: RET (Homo sapiens, UniProt P07949)
Sequence (P07949 29-1114): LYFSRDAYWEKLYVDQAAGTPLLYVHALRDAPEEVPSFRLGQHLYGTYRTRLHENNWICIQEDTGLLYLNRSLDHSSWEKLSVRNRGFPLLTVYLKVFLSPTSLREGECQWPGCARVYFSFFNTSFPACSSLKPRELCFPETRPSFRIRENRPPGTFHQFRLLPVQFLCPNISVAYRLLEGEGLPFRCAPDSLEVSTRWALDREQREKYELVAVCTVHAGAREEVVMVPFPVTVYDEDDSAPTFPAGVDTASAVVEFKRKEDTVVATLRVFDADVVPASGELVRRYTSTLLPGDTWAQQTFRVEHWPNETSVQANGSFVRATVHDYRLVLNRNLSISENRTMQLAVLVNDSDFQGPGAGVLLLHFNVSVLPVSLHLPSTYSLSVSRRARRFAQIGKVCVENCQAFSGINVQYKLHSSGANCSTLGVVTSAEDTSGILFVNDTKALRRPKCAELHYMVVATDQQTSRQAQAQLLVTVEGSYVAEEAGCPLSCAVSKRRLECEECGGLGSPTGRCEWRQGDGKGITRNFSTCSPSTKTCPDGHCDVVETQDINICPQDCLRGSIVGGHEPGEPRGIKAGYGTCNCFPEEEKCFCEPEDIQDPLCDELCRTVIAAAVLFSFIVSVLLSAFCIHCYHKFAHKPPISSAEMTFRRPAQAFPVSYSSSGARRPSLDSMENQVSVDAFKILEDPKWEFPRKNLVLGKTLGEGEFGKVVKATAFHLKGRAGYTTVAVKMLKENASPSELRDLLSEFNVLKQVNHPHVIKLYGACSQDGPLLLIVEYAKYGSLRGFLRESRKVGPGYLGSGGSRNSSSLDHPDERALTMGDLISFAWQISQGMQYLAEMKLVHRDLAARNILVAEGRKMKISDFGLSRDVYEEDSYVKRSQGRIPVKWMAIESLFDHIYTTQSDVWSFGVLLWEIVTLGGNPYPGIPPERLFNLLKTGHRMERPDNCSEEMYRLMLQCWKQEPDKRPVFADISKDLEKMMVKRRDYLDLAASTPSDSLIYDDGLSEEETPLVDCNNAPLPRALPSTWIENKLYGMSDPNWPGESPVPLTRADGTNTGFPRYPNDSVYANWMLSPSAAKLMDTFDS
Test: Kinase Profiler, residual kinase activity
Format: biochemical
Details: RET; inhibitor at 500 nM; read-out: percentage of the remaining kinase activity
Please give the number followed by its unit.

Consider the worked cases shown below.
compound	remaining activity at 0.5 µM
COC1C(N(C)C(=O)C(N)Cc2ccc(O)cc2)CC2OC1(C)n1c3ccccc3c3c4c(c5c6ccccc6n2c5c31)C(=O)NC4 (stereo not shown) [Compound 5]	21.3%
COC1C(N(C)C(=O)C(N)Cc2c[nH]cn2)CC2OC1(C)n1c3ccccc3c3c4c(c5c6ccccc6n2c5c31)C(=O)NC4 (stereo not shown) [Compound 1]	6%
COC1C(N(C)C(=O)C(N)CCC(=O)OC(C)(C)C)CC2OC1(C)n1c3ccccc3c3c4c(c5c6ccccc6n2c5c31)C(=O)NC4 (stereo not shown) [Compound 6]	34.2%
COC1C(N(C)Cc2ccc(-c3ccccc3)cc2)CC2OC1(C)n1c3ccccc3c3c4c(c5c6ccccc6n2c5c31)C(=O)NC4 (stereo not shown) [Compound 9]	14.8%

Query string: Which remaining activity at 0.5 µM value belongs to COC1C(N(C)C(=O)C(N)Cc2cn(C(=O)OC(C)(C)C)c3ccccc23)CC2OC1(C)n1c3ccccc3c3c4c(c5c6ccccc6n2c5c31)C(=O)NC4 (stereo not shown) [Compound 2] ?
Result string: 101%

Query string: Moving on to COC1C(N(C)C(=O)C(N)Cc2ccc(OC(C)(C)C)cc2)CC2OC1(C)n1c3ccccc3c3c4c(c5c6ccccc6n2c5c31)C(=O)NC4 (stereo not shown) [Compound 4]
Result string: 63%

Query string: Moving on to COC1C(N(C)C(=O)C(N)CCC(=O)O)CC2OC1(C)n1c3ccccc3c3c4c(c5c6ccccc6n2c5c31)C(=O)NC4 (stereo not shown) [Compound 7]
Result string: 1.6%

* * *

Quick reference: remaining activity at 0.5 µM of the listed items.
Target: JAK2 (Homo sapiens)
Sequence (O60674 whole entry): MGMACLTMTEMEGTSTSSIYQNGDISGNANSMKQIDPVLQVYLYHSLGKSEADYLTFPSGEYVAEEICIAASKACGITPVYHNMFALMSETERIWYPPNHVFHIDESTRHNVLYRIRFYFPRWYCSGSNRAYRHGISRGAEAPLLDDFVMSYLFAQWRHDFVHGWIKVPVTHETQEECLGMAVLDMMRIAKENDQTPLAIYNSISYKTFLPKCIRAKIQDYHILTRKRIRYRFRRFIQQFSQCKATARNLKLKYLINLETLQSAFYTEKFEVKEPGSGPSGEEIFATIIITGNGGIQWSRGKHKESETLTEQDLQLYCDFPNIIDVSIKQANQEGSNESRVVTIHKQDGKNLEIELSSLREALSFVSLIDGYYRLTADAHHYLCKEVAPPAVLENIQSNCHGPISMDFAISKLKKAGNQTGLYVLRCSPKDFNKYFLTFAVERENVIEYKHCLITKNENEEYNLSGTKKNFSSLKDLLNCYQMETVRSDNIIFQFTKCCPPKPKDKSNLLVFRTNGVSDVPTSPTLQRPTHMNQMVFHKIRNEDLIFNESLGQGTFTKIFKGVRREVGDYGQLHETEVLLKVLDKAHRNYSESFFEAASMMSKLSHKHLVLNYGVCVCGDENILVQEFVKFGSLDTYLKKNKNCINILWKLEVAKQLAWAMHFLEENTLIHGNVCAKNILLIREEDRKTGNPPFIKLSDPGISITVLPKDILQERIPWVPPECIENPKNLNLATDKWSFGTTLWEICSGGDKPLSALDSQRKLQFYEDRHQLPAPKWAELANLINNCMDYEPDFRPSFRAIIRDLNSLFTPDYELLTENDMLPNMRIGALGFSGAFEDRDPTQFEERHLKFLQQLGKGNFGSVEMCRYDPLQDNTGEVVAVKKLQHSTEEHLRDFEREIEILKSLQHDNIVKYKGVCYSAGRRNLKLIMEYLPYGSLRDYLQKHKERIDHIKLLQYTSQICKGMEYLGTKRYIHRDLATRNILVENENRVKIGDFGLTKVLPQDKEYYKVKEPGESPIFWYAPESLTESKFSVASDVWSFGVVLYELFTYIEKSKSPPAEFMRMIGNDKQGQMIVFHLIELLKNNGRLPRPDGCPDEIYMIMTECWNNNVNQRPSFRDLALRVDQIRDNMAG
Assay: Kinase Profiler, residual kinase activity
Type: biochemical
Conditions: JAK2; inhibitor at 500 nM; read-out: percentage of the remaining kinase activity
Numeric answer only, unit % assumed.

Consider the worked cases shown below.
compound	systemName	remaining activity at 0.5 µM (%)
COC1C(N(C)Cc2ccc(-c3ccccc3)cc2)CC2OC1(C)n1c3ccccc3c3c4c(c5c6ccccc6n2c5c31)C(=O)NC4 (stereo not drawn) [Compound 9]	JAK2 (Homo sapiens)	4.4
COC1C(N(C)C(=O)C(N)Cc2cn(C(=O)OC(C)(C)C)c3ccccc23)CC2OC1(C)n1c3ccccc3c3c4c(c5c6ccccc6n2c5c31)C(=O)NC4 (stereo not drawn) [Compound 2]	JAK2 (Homo sapiens)	70

Query string: Which remaining activity at 0.5 µM value belongs to COC1C(N(C)C(=O)C(N)Cc2ccc(O)cc2)CC2OC1(C)n1c3ccccc3c3c4c(c5c6ccccc6n2c5c31)C(=O)NC4 (stereo not drawn) [Compound 5] ?
Result string: 19.4

* * *

Target: EGFR (Homo sapiens)
Construct: purchased Research Biology Corp. (http://www.reactionbiology.com)
Sequence (P00533 25-1210): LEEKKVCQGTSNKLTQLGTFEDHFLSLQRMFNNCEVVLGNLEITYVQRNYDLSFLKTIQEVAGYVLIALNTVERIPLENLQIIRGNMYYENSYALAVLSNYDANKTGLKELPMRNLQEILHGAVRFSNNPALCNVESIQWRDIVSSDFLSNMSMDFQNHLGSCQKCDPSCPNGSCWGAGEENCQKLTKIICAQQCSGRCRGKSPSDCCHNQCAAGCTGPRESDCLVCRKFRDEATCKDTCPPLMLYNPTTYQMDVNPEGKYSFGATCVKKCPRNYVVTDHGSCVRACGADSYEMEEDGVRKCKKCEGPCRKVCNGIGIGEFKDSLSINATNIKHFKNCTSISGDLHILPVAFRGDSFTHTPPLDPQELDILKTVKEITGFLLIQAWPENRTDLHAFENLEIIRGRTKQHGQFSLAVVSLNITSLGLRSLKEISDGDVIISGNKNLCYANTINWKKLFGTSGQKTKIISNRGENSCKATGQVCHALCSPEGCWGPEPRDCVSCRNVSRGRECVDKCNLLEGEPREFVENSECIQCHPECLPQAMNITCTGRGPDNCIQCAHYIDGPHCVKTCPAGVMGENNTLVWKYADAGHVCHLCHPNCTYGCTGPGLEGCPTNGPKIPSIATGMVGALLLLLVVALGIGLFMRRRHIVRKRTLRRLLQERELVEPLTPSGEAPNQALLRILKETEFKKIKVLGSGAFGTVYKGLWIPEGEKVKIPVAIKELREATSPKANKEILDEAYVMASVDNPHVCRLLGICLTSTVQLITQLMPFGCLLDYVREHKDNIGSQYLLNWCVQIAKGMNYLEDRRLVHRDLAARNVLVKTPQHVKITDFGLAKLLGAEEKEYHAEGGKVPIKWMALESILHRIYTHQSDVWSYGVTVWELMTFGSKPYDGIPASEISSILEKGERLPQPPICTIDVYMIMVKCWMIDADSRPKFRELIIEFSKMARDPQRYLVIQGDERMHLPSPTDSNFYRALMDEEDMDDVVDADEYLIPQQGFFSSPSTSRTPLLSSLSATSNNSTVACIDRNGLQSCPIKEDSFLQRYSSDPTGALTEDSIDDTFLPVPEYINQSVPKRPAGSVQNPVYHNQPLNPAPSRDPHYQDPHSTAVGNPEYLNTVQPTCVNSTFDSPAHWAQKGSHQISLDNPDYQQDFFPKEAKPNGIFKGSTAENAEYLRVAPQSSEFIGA
Experiment: Kinase Profiler, residual kinase activity
Assay type: biochemical
Details: EGFR; inhibitor at 500 nM; read-out: percentage of the remaining kinase activity
metricName: remaining activity at 0.5 µM (%)
Numeric answer only, unit % assumed.

compound	metricName	obsValue
COC1C(N(C)C(=O)C(N)Cc2ccc(O)cc2)CC2OC1(C)n1c3ccccc3c3c4c(c5c6ccccc6n2c5c31)C(=O)NC4 (stereo not shown) [Compound 5]	remaining activity at 0.5 µM	93.1

Note: attention shifts to another entry.
Query string: Which remaining activity at 0.5 µM value belongs to COC1C(N(C)Cc2ccc(-c3ccccc3)cc2)CC2OC1(C)n1c3ccccc3c3c4c(c5c6ccccc6n2c5c31)C(=O)NC4 (stereo not shown) [Compound 9] ?
Result string: 96.2

* * *

Quick reference: remaining activity at 0.5 µM of the listed items.
Biological target: CDK2 (Homo sapiens, UniProt P24941)
Experiment: Kinase Profiler, residual kinase activity
Format: biochemical
Details: CDK2; inhibitor at 500 nM; read-out: percentage of the remaining kinase activity
Numeric answer only, unit % assumed.

compound	uom	remaining activity at 0.5 µM
COC1C(N(C)C(=O)C(N)Cc2ccc(OC(C)(C)C)cc2)CC2OC1(C)n1c3ccccc3c3c4c(c5c6ccccc6n2c5c31)C(=O)NC4 (stereo not shown)	%	57.5
COC1C(N(C)C(=O)C(N)CCC(=O)O)CC2OC1(C)n1c3ccccc3c3c4c(c5c6ccccc6n2c5c31)C(=O)NC4 (stereo not shown)	%	19.3
COC1C(N(C)Cc2ccc(-c3ccccc3)cc2)CC2OC1(C)n1c3ccccc3c3c4c(c5c6ccccc6n2c5c31)C(=O)NC4 (stereo not shown)	%	8.2
COC1C(N(C)C(=O)C(N)Cc2c[nH]cn2)CC2OC1(C)n1c3ccccc3c3c4c(c5c6ccccc6n2c5c31)C(=O)NC4 (stereo not shown)	%	16.5
COC1C(N(C)C(=O)C(N)Cc2cn(C(=O)OC(C)(C)C)c3ccccc23)CC2OC1(C)n1c3ccccc3c3c4c(c5c6ccccc6n2c5c31)C(=O)NC4 (stereo not shown)	%	76.6

Query string: Which remaining activity at 0.5 µM value belongs to COC1C(N(C)C(=O)C(N)CCC(=O)OC(C)(C)C)CC2OC1(C)n1c3ccccc3c3c4c(c5c6ccccc6n2c5c31)C(=O)NC4 (stereo not shown) ?
Result string: 55

Query string: Moving on to COC1C(N(C)C(=O)C(N)Cc2ccc(O)cc2)CC2OC1(C)n1c3ccccc3c3c4c(c5c6ccccc6n2c5c31)C(=O)NC4 (stereo not shown)
Result string: 56.9

* * *

Molecular target: IRAK4 (Homo sapiens, UniProt Q9NWZ3)
Sequence (Q9NWZ3 whole entry): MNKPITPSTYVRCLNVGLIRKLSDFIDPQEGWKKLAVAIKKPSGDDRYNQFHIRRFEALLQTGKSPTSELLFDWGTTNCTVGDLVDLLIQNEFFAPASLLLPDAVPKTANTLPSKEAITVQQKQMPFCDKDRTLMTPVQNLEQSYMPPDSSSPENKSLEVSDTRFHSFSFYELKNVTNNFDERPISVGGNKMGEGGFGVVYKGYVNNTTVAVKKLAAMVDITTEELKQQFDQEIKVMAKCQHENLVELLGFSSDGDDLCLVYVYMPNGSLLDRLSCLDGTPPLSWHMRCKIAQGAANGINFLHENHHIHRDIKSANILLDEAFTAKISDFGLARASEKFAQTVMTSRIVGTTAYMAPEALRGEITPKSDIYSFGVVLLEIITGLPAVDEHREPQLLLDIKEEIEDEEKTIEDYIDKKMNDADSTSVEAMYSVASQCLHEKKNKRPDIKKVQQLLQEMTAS
Assay: Kinase Profiler, residual kinase activity
Format: biochemical
Details: IRAK4; inhibitor at 500 nM; read-out: percentage of the remaining kinase activity
metricName: remaining activity at 0.5 µM (%)
Numeric answer only, unit % assumed.

Query string: Which remaining activity at 0.5 µM value belongs to COC1C(N(C)C(=O)C(N)CCC(=O)O)CC2OC1(C)n1c3ccccc3c3c4c(c5c6ccccc6n2c5c31)C(=O)NC4 (stereo not shown) [Compound 7] ?
Result string: 46.8

Query string: Moving on to COC1C(N(C)C(=O)C(N)Cc2ccc(O)cc2)CC2OC1(C)n1c3ccccc3c3c4c(c5c6ccccc6n2c5c31)C(=O)NC4 (stereo not shown) [Compound 5]
Result string: 85.9

Query string: Moving on to COC1C(N(C)C(=O)C(N)CCC(=O)OC(C)(C)C)CC2OC1(C)n1c3ccccc3c3c4c(c5c6ccccc6n2c5c31)C(=O)NC4 (stereo not shown) [Compound 6]
Result string: 63.5

Query string: Moving on to COC1C(N(C)C(=O)C(N)Cc2ccc(OC(C)(C)C)cc2)CC2OC1(C)n1c3ccccc3c3c4c(c5c6ccccc6n2c5c31)C(=O)NC4 (stereo not shown) [Compound 4]
Result string: 87.4

Query string: Moving on to COC1C(N(C)C(=O)C(N)Cc2c[nH]cn2)CC2OC1(C)n1c3ccccc3c3c4c(c5c6ccccc6n2c5c31)C(=O)NC4 (stereo not shown) [Compound 1]
Result string: 33.4

Query string: Moving on to COC1C(N(C)C(=O)C(N)Cc2cn(C(=O)OC(C)(C)C)c3ccccc23)CC2OC1(C)n1c3ccccc3c3c4c(c5c6ccccc6n2c5c31)C(=O)NC4 (stereo not shown) [Compound 2]
Result string: 101

Query string: Moving on to COC1C(N(C)Cc2ccc(-c3ccccc3)cc2)CC2OC1(C)n1c3ccccc3c3c4c(c5c6ccccc6n2c5c31)C(=O)NC4 (stereo not shown) [Compound 9]
Result string: 26.6

* * *

Quick reference: remaining activity at 0.5 µM of the listed items.
Molecular target: OXSR1 (Homo sapiens)
Construct: purchased Research Biology Corp. (http://www.reactionbiology.com)
Sequence (O95747 whole entry): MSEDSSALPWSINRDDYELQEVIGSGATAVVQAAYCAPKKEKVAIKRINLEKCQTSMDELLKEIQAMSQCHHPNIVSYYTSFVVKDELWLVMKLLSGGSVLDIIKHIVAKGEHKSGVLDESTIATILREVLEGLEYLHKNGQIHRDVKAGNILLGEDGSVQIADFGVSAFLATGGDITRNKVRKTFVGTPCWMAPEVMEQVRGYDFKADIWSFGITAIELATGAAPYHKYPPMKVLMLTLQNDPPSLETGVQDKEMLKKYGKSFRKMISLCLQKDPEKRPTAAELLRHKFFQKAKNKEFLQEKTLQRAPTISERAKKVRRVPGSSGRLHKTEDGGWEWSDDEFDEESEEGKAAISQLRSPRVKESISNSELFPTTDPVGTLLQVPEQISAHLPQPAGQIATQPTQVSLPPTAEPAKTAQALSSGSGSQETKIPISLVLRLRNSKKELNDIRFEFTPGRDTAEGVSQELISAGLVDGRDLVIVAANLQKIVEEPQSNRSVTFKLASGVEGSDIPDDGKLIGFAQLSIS
Test: Kinase Profiler, residual kinase activity
Format: biochemical
Conditions: OXSR1; inhibitor at 500 nM; read-out: percentage of the remaining kinase activity
Description: Kinase Profiler services provided by […]. (http://www.reactionbiology.com) were used to analyze the data of the 9 type-S protein kinase inhibitors against the 40 types of protein kinases.
Numeric answer only, unit % assumed.

compound	remaining activity at 0.5 µM, %
COC1C(N(C)C(=O)C(N)CCC(=O)OC(C)(C)C)CC2OC1(C)n1c3ccccc3c3c4c(c5c6ccccc6n2c5c31)C(=O)NC4 (stereo not shown) [Compound 6]	111
COC1C(N(C)C(=O)C(N)Cc2ccc(OC(C)(C)C)cc2)CC2OC1(C)n1c3ccccc3c3c4c(c5c6ccccc6n2c5c31)C(=O)NC4 (stereo not shown) [Compound 4]	110
COC1C(N(C)C(=O)C(N)Cc2c[nH]cn2)CC2OC1(C)n1c3ccccc3c3c4c(c5c6ccccc6n2c5c31)C(=O)NC4 (stereo not shown) [Compound 1]	106

Query string: Which remaining activity at 0.5 µM value belongs to COC1C(N(C)C(=O)C(N)Cc2cn(C(=O)OC(C)(C)C)c3ccccc23)CC2OC1(C)n1c3ccccc3c3c4c(c5c6ccccc6n2c5c31)C(=O)NC4 (stereo not shown) [Compound 2] ?
Result string: 116
